Test system: K4 kissing-loop RNA reporter
Assay: apparent KD of K4 kissing-loop reporter; higher = weaker reporter binding
Conditions: Eterna round: R107; input ligand: none
Decision: apparent KD of K4 kissing-loop reporter >= 0.4 µM yields MET, all other cases yield NOT MET.

Exam item: decide whether the reported apparent KD of K4 kissing-loop reporter for UGAUAGGACAGAAGGAGCGGAGGUCGUCAAAGACGACCAAUACGUUAAAUAGGAGUGAUGUUCCAGGUAGGUCGCUGUCCUAUCU [ArgBX 30 #SwitchBubble #StaticStem] is at least 0.4 µM. NOT MET

Quick check, apparent KD of K4 kissing-loop reporter >= 0.4 µM? UCUCGGGCCAGUGAUGUUGGCGGCUAGUGGCGAGGACCGGUACGGCCGCCACUCGGCGCAGCAGCGGAGUGAUGUUUCGUGAGUA [Same State Tryptophan A GF 17] NOT MET

Does the reported apparent KD of K4 kissing-loop reporter for AGUGAUAUAUGAGGAUAUGGGUUUGUUAAUGAGUUAUUUUUAGUGUUGUUUGGUUAGUGAUGUUAUUUAGAAGGCGUGAGUGAUG [rrwswwmjmullin] fall at or above the 0.4 µM mark? NOT MET

// inclusive: apparent KD of K4 kissing-loop reporter at least 0.4 µM? input: GGAGUUACCUGGGAUACCAGUCGGAGGCCCAGAGCUCGGAGUGAUGUUCUGGGAUGUUUCGGCCCUUGGCAGCUCUGGGUCUCCG [#2 Exclusion - Theophylline B Attempt #4 (HarryS)] MET

Decide: is the reported value of apparent KD of K4 kissing-loop reporter for AGGCCCGGCCGAAAGGCCGGGCCAAGAGAUACCAGCAGCGAAAGCUGCCCUUGGCAGCUCACUUAGUGAUGUUAAGAAUAGAACA [SS Theo A Tesla 1] equal to or greater than 0.4 µM? NOT MET

###

Tested on: K4 kissing-loop RNA reporter;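 note: bound reporter read as fluorescence of individual clusters on recovered sequencing chips by microscopy, with normalized cluster intensities fitted with a binding model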
Assay: apparent KD of K4 kissing-loop reporter; higher = weaker reporter binding
Settings: Eterna round: R107; input ligand: arginine 13.2 mM
Classify by measured apparent KD of K4 kissing-loop reporter: 1 if it is equal to or exceeds 0.2 µM, 0 if it is smaller.

Threshold query (apparent KD of K4 kissing-loop reporter >= 0.2 µM) on UGGAGUUGACGAAAAGUCAACUCCUGAGAUACCAGUGACGAAAGUCACCCUUGGCAGCUCACUGGCAGUGAUGUUGCACGAUAAA [KL-SSTheo-A1] 0

Is apparent KD of K4 kissing-loop reporter for UGAUACCAGACGGCCGCCACUAGAGCUAGCAAAGCUAGCAAGUGAUGUUUGAGGAGUGAUGUUCCUAGGACCGGGUCUGGUAUCU [TrypBX 2 #Palindromic #SwitchBubble #StaticStem] at or above 0.2 µM? 0

Decide: is the reported value of apparent KD of K4 kissing-loop reporter for AACUUGUUUGGAGGAUAUUCUUUAUUCGACAUAACCUUCUAUAAGGUGCAGUGAUGUUGCAAUAUAGGAGAAGGUCGAGUGAGAA [Exclusion FMN B Gf 16] equal to or greater than 0.2 µM? 0

// inclusive: apparent KD of K4 kissing-loop reporter at least 0.2 µM? input: UCUAGUUCUACGGCCGCCACUAUCGAGCACGGGUAUUAGUGAUGUUGAGGUCGUGUCUCCCUCCCUAGGACCGGGUAGAUCUUAG [theeternabot_sameState_KL_Trp_B_4] 1

Confirm if apparent KD of K4 kissing-loop reporter reported for the sequence CCGCUACCCUCAGGAUAUUAAAUAUUAGUGAUGUUAAUAAACCGAUGGCGAAAGCCAUCGGUAUGUUGAGAAGGGAGGGUAGCGG [whbob_SS_FMNB__2th196] is 0.2 µM or above. 1

Has UACAUUGCAGUCUUCUUCGUCCUAGAUGACUAGGAUAUCAGGAAACUGAGAAGGAGUCACUGCAGUGAUGUUGCAGCUAGGACGA [KL-SSFMN-A9] a recorded apparent KD of K4 kissing-loop reporter greater than or equal to 0.2 µM? 0

Please indicate if the recorded apparent KD of K4 kissing-loop reporter for AGAGGUCCCAGUGAUGUUGGUGCGUUUGGUCGAGGACCGGUACGGCCGCCACUCGUUCAUAGUAAGCCCUCUUUAGUGUUUCUAA [theeternabot_sameState_KL_Trp_A_9] meets or exceeds 0.2 µM. 1

Please indicate if the recorded apparent KD of K4 kissing-loop reporter for GGGAGUAGUGCGGCCGCCACUGAGAAAGAAGAAGAAUAUAGUGAUGUUAUGUGGGAAAGGAAGAACAGGACCGGGCAUUAGAUUU [#21 K4 Tryptophan B Same State] meets or exceeds 0.2 µM. 1

Check if apparent KD of K4 kissing-loop reporter >= 0.2 µM (inclusive). Item: AAACUUGCAGUGAUGUUGCAAGUAGGUGAUACCAGCAUCGAAAGAUGCCCUUGGCAGCACCAACACUGCAAGUAAGUAUCACCAA [(H1)-(H2)-(T1)-(T2)-(H)'-(T)'_Design1] 0

Given the entry GCGGCGGGCCAAGGAUAUAUUUUGGAGUGAUGUUGUUCAUUUAUUUGAGCUAGUGAUGUUGGUCGAAUAGAAGGUGGCCCGCCGC [whbob_Ex_FMNB__2th219] , answer whether its apparent KD of K4 kissing-loop reporter meets or surpasses 0.2 µM. 0
